Target: PheX-B5 (Methanosarcina barkeri, UniProt Q6WRH6, C313A/N311G)
Sequence (Q6WRH6 other isoform, or with tags, fused parts or gaps N311G/C313A): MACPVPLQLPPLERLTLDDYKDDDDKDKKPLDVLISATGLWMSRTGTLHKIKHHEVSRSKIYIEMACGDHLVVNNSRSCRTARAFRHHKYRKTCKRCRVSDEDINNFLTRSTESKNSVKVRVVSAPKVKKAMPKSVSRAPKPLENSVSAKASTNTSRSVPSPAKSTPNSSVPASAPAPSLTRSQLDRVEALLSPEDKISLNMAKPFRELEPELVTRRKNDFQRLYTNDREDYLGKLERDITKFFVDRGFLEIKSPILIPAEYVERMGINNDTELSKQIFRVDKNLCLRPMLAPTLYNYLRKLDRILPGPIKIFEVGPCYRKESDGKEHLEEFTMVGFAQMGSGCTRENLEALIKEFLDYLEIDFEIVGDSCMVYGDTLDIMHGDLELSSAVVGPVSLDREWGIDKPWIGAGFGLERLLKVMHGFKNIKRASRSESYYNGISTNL
Assay: ESI-MS encoding fidelity of sfGFP_N150TAG expressed in HEK 293T cells with PheX-B5
Type: cell-based, human
Design: Phex-B5 HEK; expressed in transfected cells; host or cells: HEK 293T
Conditions: PheX-B5, HEK 293T cells, sfGFP_N150TAG, 2 mM ncAA, ESI-MS, estimated
Attribute measured: fidelity (encoding)

Below: 5 compounds and their reported fidelity (encoding).
Input line: I am curious: what fidelity (encoding) value has been reported for `N[C@@H](Cc1c(F)c(F)cc(F)c1F)C(=O)O` ?
Output line: 100%

Input line: // returns reported fidelity (encoding) for input `N[C@@H](Cc1c(F)cccc1F)C(=O)O`
Output line: 100%

Input line: Need fidelity (encoding), item `N[C@@H](Cc1cc(F)c(F)c(F)c1F)C(=O)O`
Output line: 97.4%

Input line: Bench note: what fidelity (encoding) did `N[C@@H](Cc1cc(F)ccc1F)C(=O)O` show?
Output line: 91.3%

Input line: Give the measured fidelity (encoding) of `N[C@@H](Cc1c(F)ccc(F)c1F)C(=O)O` .
Output line: 100%

Now look at this one.
Input line: What does the data say about its fidelity (encoding)? Entry: `N[C@@H](Cc1c(F)c(F)c(F)c(F)c1F)C(=O)O`
Output line: 96.2%

----------
The reader will find reported encoding fidelity values listed item by item below.
Target: PheX-D6 (Methanosarcina barkeri, UniProt Q6WRH6, C313M/N311A/V366G/W382T)
Test: ESI-MS encoding fidelity of sfGFP_N150TAG expressed in E. coli with PheX-D6
Type: cell-based
Set-up: Phex-D6 ECOLI; expressed in transfected cells; host or cells: E. coli
Settings: sfGFP N150TAG, 1 mM ncAA, intact protein ESI-MS
Procedure: Previously existing E. coli containing sfGFP150TAG and a given Rs in non-inducing media were used to inoculate 5 mL cultures of non-inducing media containing 50 μg/mL Kan and 25 μg/mL Tet. Cultures were incubated for 20 hours at 37° C., shaking at 250 rpm. […] Protein concentration was assessed by comparing sfGFP fluorescence to a standard curve and submitted for ESI-MS. The spectra were analyzed in-house by Novatia (Promass) to yield relative intensities at given masses. […]
Sequence (Q6WRH6 whole entry N311A/C313M/V366G/W382T): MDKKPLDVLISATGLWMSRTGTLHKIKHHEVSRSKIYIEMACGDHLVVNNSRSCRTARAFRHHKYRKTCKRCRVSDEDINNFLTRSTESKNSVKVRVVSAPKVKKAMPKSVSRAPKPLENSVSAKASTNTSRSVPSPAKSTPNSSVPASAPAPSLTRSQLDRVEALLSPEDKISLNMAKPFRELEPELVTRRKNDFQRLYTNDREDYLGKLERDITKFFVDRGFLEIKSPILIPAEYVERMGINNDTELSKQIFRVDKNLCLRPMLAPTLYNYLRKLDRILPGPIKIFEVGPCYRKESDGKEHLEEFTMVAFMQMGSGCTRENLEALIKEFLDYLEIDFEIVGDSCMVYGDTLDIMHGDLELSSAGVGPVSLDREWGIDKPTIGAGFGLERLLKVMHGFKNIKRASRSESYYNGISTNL
Expressed in %, but write only the number.

Worked examples follow.
Input line: Would you kindly share the measured encoding fidelity for N[C@@H](Cc1c(F)c(F)cc(F)c1F)C(=O)O [2,3,5,6-fluoro Phe, 2,3,5,6 tetra-fluoro Phenylalanine] ?
Output line: 98.7

Input line: # lookup: encoding fidelity of N[C@@H](Cc1c(F)c(F)c(F)c(F)c1F)C(=O)O [Penta-fluoro Phe, 2,3,4,5,6 penta-fluoro Phenylalanine]
Output line: 98.2

Others:
Input line: Name the reported encoding fidelity value associated with the compound N[C@@H](Cc1c(F)ccc(F)c1F)C(=O)O [2,3,6-fluoro Phe, 2,3,6 tri-fluoro Phenylalanine]
Output line: 96.7

Input line: Please report the recorded encoding fidelity for N[C@@H](Cc1c(F)cccc1F)C(=O)O [2,6-fluoro Phe, 2,6 di-fluoro Phenylalanine] .
Output line: 95.0

----------
Target: PheX-D6 (Methanosarcina barkeri, UniProt Q6WRH6, C313M/N311A/V366G/W382T)
Assay: ESI-MS encoding fidelity of sfGFP_N150TAG expressed in HEK 293T cells with PheX-D6
Format: cell-based, human
Design: Phex-D6 HEK; expressed in transfected cells; host or cells: HEK 293T
Details: PheX-D6, HEK 293T cells, 2 mM ncAA, estimated
Procedure: HEK 293T cells were expanded in […]. […] Overall, 7-40 dishes were transfected with master mixes such that each dish received 3.5 μg of pACBAC1, 1.5 μg sfGFP_N150TAG, and 15 μL of PolyJET according to manufacturer's instructions. Media was changed before transfection and approximately 18 hrs after transfection. […] The spectra was analyzed in-house by Novatia (Promass software) to yield relative intensities of the dominant mass and any other apparent peaks. […]
Sequence (Q6WRH6 other isoform, or with tags, fused parts or gaps N311A/C313M/V366G/W382T): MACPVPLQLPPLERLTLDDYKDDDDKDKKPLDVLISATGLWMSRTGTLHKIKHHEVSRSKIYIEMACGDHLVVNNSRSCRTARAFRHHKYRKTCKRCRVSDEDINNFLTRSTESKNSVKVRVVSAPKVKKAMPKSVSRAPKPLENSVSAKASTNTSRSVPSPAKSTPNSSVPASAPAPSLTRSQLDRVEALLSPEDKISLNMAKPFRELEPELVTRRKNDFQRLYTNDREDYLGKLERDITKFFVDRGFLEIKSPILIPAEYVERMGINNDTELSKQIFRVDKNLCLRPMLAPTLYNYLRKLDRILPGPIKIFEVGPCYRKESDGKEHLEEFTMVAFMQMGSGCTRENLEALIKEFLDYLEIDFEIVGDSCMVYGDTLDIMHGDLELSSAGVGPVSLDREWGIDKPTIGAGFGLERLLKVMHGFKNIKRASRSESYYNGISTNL
Items are presented alongside their recorded fidelity (encoding).
The reply should be a number in %, with the unit left off.

Input line: Which measured fidelity (encoding) value corresponds to `N[C@@H](Cc1cc(F)ccc1F)C(=O)O` ?
Output line: 95.6

Input line: Item under review: `N[C@@H](Cc1c(F)cccc1F)C(=O)O` . Reported fidelity (encoding)?
Output line: 97.6

Input line: Quick check: fidelity (encoding) of `N[C@@H](Cc1cc(F)c(F)c(F)c1F)C(=O)O` ?
Output line: 100

Further cases:
Input line: # lookup: fidelity (encoding) of `N[C@@H](Cc1c(F)c(F)cc(F)c1F)C(=O)O`
Output line: 98.2

Input line: Would you kindly share the measured fidelity (encoding) for `N[C@@H](Cc1c(F)ccc(F)c1F)C(=O)O` ?
Output line: 98.5

Input line: # input compound: `N[C@@H](Cc1c(F)c(F)c(F)c(F)c1F)C(=O)O` ; wanted: its fidelity (encoding)
Output line: 97.5
